Each recorded value in this set is attributed to a melting point compilation (Tetko et al.; mined from patent text by program, amines drawn as free bases though some values may be those of a salt).

readout-type: melting point

// worked examples, melting point included
>  <compound>
CC1(C)CCC(C)(C)c2cc(-c3cc(-c4ccc(C(=O)O)cc4)ccc3CC(O)CO)ccc21 (centres undefined)

>  <val>
145 °C

$$$$
>  <compound>
[N-]=[N+]=NC(=O)C=Cc1cccc2[nH]ccc12

>  <val>
105 to 106 °C

$$$$
>  <compound>
Cc1cc(-c2nc3cccnn3c2-c2ccnc(N)c2)ccc1F

>  <val>
179 to 180 °C

$$$$
>  <compound>
Cn1cc(C(=O)c2ccncc2)cc1C(=O)c1ccc(Cl)cc1

>  <val>
174 to 175 °C

$$$$
>  <compound>
Cc1cn(C(C)(C)C(=O)N(C)C)nc1-c1cccc(Cl)c1

>  <val>
144 to 146 °C

$$$$

Supply recorded melting point for CCCc1c(OCC(O)CSc2nc3ccc(C(=O)O)cc3[nH]2)ccc(C(C)=O)c1O (centres undefined) here.
133 to 135 °C

Supply recorded melting point for O=C(NCC12CC3CC(CC(C3)C1)C2)c1cc(-c2ccccc2C(=O)O)ncc1Cl here.
134 to 138 °C

Supply recorded melting point for CCCc1c(OCCCOc2ccc(Cl)cc2)ccc2c1OC(CCC(=O)O)(CCC(=O)O)CC2=O here.
133 to 134 °C

Supply recorded melting point for CS(=O)(=O)c1ccccc1OC(F)(F)F here.
44 to 46 °C

====

melting point for assorted molecules

// worked examples, melting point included
>  <molecule>
CC(=O)Nc1ccccc1-c1ccc(F)cc1

>  <val>
123 to 124 °C

$$$$
>  <molecule>
OC1(C#CC2(F)C=CC(c3ccccc3)=CC2)CN2CCC1CC2 (stereo not given)

>  <val>
232 to 233 °C

$$$$
>  <molecule>
O=C(C1=Cc2ccccc2C1)c1ccc(OC(F)(F)F)cc1

>  <val>
115 to 117 °C

$$$$
>  <molecule>
COc1cccc(-c2nc(-c3ccccc3)c3ncc(-c4ccc(C(C)=O)cc4)cc3n2)c1

>  <val>
133 to 134 °C

$$$$

Moving on to the next molecule.
Supply recorded melting point for c1ccc(-n2c3c(c4ccccc42)CCNCC3)cc1 here.
174 to 180 °C

====

readout-type: melting point

// worked examples, melting point included
>  <molecule>
Cc1[nH]cnc1CSCCN=C(NCCCc1c[nH]cn1)NC(=O)c1ccccc1

>  <melting point>
98.5 to 100 °C

$$$$
>  <molecule>
CCc1cc(=O)c(I)c(CC)[nH]1

>  <melting point>
225 to 227 °C

$$$$
>  <molecule>
CC1CC(=O)C2OCC1O2 (stereo not given)

>  <melting point>
122 to 125 °C

$$$$
>  <molecule>
O=C(O)C1Cc2ccccc2N1c1ncccn1 (stereo not given)

>  <melting point>
249 to 250 °C

$$$$
>  <molecule>
Cc1nc2ccc(Cl)cn2c(=O)c1CCN1CCN(c2cccc(Cl)c2)CC1

>  <melting point>
152 to 154 °C

$$$$

Supply recorded melting point for Cc1cc(C)cc(-n2ncc(-c3ccc(S(C)(=O)=O)cc3)c(-c3ccc(F)cc3)c2=O)c1 here.
130 to 134 °C

Supply recorded melting point for Cc1ccc(-n2c(-c3c4ccccc4cc4ccccc34)ccc2-c2c3ccccc3cc3ccccc23)cc1 here.
262 to 263 °C

Supply recorded melting point for Cc1cccc(C)c1C(=O)Oc1cc([N+](=O)[O-])cc([N+](=O)[O-])c1O here.
163 to 165 °C

Supply recorded melting point for CCCCCOc1ccc(-c2ccc(CC(=O)c3ccccc3)cc2)cc1 here.
86 °C

Supply recorded melting point for COCCNC(=O)c1cccc(CN2C(=O)C3(COc4cc5c(cc43)CCO5)c3ccccc32)c1 (stereo not given) here.
72 to 73 °C

====

melting point for assorted molecules

>  <molecule>
CCN1c2nc(Cl)ccc2NC(=O)c2cc(CCc3cccc(NS(C)(=O)=O)c3)cnc21

>  <melting point>
131 to 132 °C

$$$$
>  <molecule>
CN(C)C(=O)CCCCCCCCCCCCO

>  <melting point>
69 to 71 °C

$$$$
>  <molecule>
CCc1cc2c(s1)SCCc1cc(=O)[nH]nc1-2

>  <melting point>
256 to 258 °C

$$$$
>  <molecule>
CCOC(=O)c1ccc2cccc(N)c2c1

>  <melting point>
97 to 98 °C

$$$$

Supply recorded melting point for COC(=N)Nc1ccc(C(F)(F)F)cc1 here.
121 to 123 °C

Supply recorded melting point for CCCCC(=O)OC1(C(=O)CO)CCC2C3CC(C)C4=CC(=O)CCC4(C)C3C(O)CC21C (stereo unspecified) here.
160 °C

Supply recorded melting point for O=C(O)Cc1cnn(-c2ccccc2)c1-c1ccccc1 here.
107 to 110 °C

Supply recorded melting point for Cc1ccc2nc3[nH]c(=O)[nH]c3cc2c1C here.
> 300 °C

Supply recorded melting point for CC1(C)CCC(C)(C)c2cc(CC#Cc3ccc(C(=O)NO)c(O)c3)ccc21 here.
119 to 120 °C

Supply recorded melting point for CC(O)=C(C#N)C(=O)Nc1ccc(C(C)(C)C)cc1 here.
134 to 135 °C

Supply recorded melting point for CCC(O)C(O)c1ccc(OCc2ccc3ccccc3c2)c(OC)c1 (stereo unspecified) here.
120 °C

====

readout-type: melting point

Supply recorded melting point for Cn1cc(-c2ccc(C(=O)N3Cc4cccn4Cc4ccccc43)c(Cl)c2)cn1 here.
105 to 109 °C

Supply recorded melting point for CCOC(=O)c1cn(C2CC2)c2c(F)c(F)c(F)c(CC)c2c1=O here.
139 to 140 °C

Supply recorded melting point for Cc1ccc(-c2c[nH]c(-c3ccc4c(c3)C(C)(C)CCC4(C)C)c2)cc1 here.
190 to 192 °C

Supply recorded melting point for O=C(NC1CCCCC1)NS(=O)(=O)c1cnccc1NC1CCCCC1 here.
165 to 167 °C

Supply recorded melting point for FC(F)(F)c1cccc(-c2ccn3ncnc3n2)c1 here.
201 to 202 °C

Supply recorded melting point for Cc1ccc(C)n1Nc1ccc(N2CCSCC2)nn1 here.
203 °C

Supply recorded melting point for C=CC(=O)NCNC(=O)CCS(=O)(=O)CCCl here.
186 to 187 °C

Supply recorded melting point for CCc1nn2c(N)cc(Cl)nc2c1S(=O)(=O)c1ccccc1 here.
> 220 °C

Supply recorded melting point for CCc1c(-c2ccc(OCc3ccccc3)cc2)c2c(COCCCCCCCN3CCCCC3)cc3c(OCc4ccccc4)ccc1n32 here.
86 to 90 °C

Supply recorded melting point for CCn1c(-c2ccc(OC)c(OC)c2)cc(=O)n(CC)c1=O here.
104 to 107 °C

====

melting point for assorted compounds

>  <compound>
CCOC(=O)c1cc(-c2ccccc2)oc1C(F)(F)F

>  <melting point>
44 to 45 °C

$$$$
>  <compound>
O=C(c1ccccc1C(c1ccc(O)cc1)c1ccc(O)cc1)N1CCSCC1

>  <melting point>
259 to 261 °C

$$$$
>  <compound>
O=C1Nc2ccc(Br)cc2C1c1ncnc2nn(C3CCCCC3)cc12 (stereo not given)

>  <melting point>
285 to 290 °C

$$$$
>  <compound>
COc1ccc(C2CCOCC2)c2sc(-c3ncc[nH]3)nc12

>  <melting point>
220 to 224 °C

$$$$
>  <compound>
N#Cc1ccc(OCc2ccc3c(c2)OCO3)cc1OC(C(=O)O)c1ccccc1 (racemic)

>  <melting point>
68 to 70 °C

$$$$

Supply recorded melting point for CN(CCCOc1ccc(C=C2SC(=O)NC2=O)cc1)c1nc2ccccc2o1 here.
202 to 204 °C

====

melting point for assorted compounds

// worked examples, melting point included
>  <compound>
COc1ccc(S(=O)(=O)Nc2cccc3c2Nc2ccc(C#N)cc2CN3)cc1

>  <melting point>
105 to 107 °C

$$$$
>  <compound>
CCc1cc(-c2ccc(C(C)=O)cc2)ccc1OC

>  <melting point>
69 to 72 °C

$$$$

Supply recorded melting point for CCCCS(=O)(=O)NC1Cc2ccc(C(C)=O)cc2C1 (stereo not given) here.
90 to 92 °C

Supply recorded melting point for COc1cc(OC)c(NC(=S)Nc2ccccc2)cc1O here.
152 to 154 °C

Supply recorded melting point for CC(C)(C)OC(=O)[C@H](Cc1ccc(O)cc1)NC(=O)c1c(Cl)cccc1Cl here.
177 to 178 °C

====

melting point for assorted molecules

// worked examples, melting point included
>  <molecule>
CCc1ccc(S(=O)(=O)NC(C)(C)C)o1

>  <val>
71 to 72 °C

$$$$
>  <molecule>
COC(=O)c1snc(-c2ccc([N+](=O)[O-])cc2)c1C(=O)OC

>  <val>
142 to 143 °C

$$$$
>  <molecule>
NCCCCCc1nc2ccccc2[nH]1

>  <val>
101 °C

$$$$
>  <molecule>
COC(=O)CN(CCNC(=O)OC(C)(C)C)C(=O)Cc1cc2c(C)ccnc2[nH]c1=O

>  <val>
175 to 177 °C

$$$$

Supply recorded melting point for O=C(NCCc1cccc2ccc(O)cc12)C1CC1 here.
140 to 141 °C

Supply recorded melting point for N#Cc1cnc2c(oc3ccccc32)c1Nc1cccc(Br)c1 here.
242 to 245 °C

Supply recorded melting point for CC(C)c1nc2cc(NC(=O)c3c(C(=O)N4CC(F)C4)cnn3C)ccn2n1 here.
226 to 227 °C

Supply recorded melting point for Cc1nc(N2CCN(Cc3ccc(Cl)cc3)C2=O)sc1C(N)=O here.
> 200 °C

Supply recorded melting point for CC(=O)c1cccc2c1ncn2-c1cccc([N+](=O)[O-])c1 here.
175 to 177 °C

Supply recorded melting point for Cc1ccccc1-n1c(C=Cc2ccccc2F)nc2ccsc2c1=O here.
220 to 221 °C

Supply recorded melting point for O=C1Cc2ccccc2Sc2cc(C(F)(F)F)c(Cl)cc21 here.
123 to 124 °C

Supply recorded melting point for O=C1N(Cc2c[nH]cn2)CCN1c1cccc(Cl)c1 here.
201 to 203 °C

Supply recorded melting point for CC(=O)c1cc2cc(OCCNC[C@H](O)COc3ccccc3)ccc2o1 here.
122 to 123 °C

Supply recorded melting point for CCN(CC)S(=O)(=O)Oc1ccc2c(c1)CCC1C2CCC2(C)C(O)C(O)CC12 (stereo unspecified) here.
121 to 124 °C

Supply recorded melting point for Nc1ccc(C(=O)O)c([N+](=O)[O-])c1 here.
230 °C

Supply recorded melting point for CCCn1c(-c2ccccc2)nc2cc(C(=O)OC)ccc21 here.
79.8 °C

Supply recorded melting point for CC(S(N)(=O)=O)S(=O)(=O)N1CCCC1 (stereo unspecified) here.
78 to 80 °C

Supply recorded melting point for CCN1c2ncccc2C(=O)N(C)c2ccc(-c3c[nH]nc3C)nc21 here.
113 to 115 °C

Supply recorded melting point for CCOC(=O)C1=C(C)Nc2ccnc(OC(C)C)c2C1c1cccc2nonc12 (stereo unspecified) here.
134 to 136 °C
